target: 26S proteasome; experiment: Inhibition of chymotrypsin-like of human 20S proteasome using chromophoric Suc-LLVY-AMC as substrate after 60 mins by fluorescence assay
Examples of compounds with documented IC50 follow.
Reply with just the number (in µM).

CC(=O)N[C@@H](CC(=O)NCCC(COCc1ccccc1)COCc1ccccc1)C(=O)N[C@@H](CC(C)C)C(=O)[C@@]1(C)CO1 :: 2.3

Below: the item to evaluate.
input: Looking for the measured IC50 of CC(=O)N[C@@H](CC(=O)NCCCCOCc1ccccc1)C(=O)N[C@@H](CC(C)C)C(=O)[C@@]1(C)CO1 , can you help?
output: 5.7

// provenance: ChEMBL document CHEMBL3286207
